ASSAY_SYSTEM: SARM1 SAM-TIR (Homo sapiens, UniProt Q6SZW1)
Construct: a fragment of the SARM1 molecule encompassing the SAM and TIR domains; made in house; host or cells: NRK1-HEK293T cells, transiently transfected; the cleared, unpurified lysate was used as the enzyme
Sequence (Q6SZW1 409-724 limits assumed): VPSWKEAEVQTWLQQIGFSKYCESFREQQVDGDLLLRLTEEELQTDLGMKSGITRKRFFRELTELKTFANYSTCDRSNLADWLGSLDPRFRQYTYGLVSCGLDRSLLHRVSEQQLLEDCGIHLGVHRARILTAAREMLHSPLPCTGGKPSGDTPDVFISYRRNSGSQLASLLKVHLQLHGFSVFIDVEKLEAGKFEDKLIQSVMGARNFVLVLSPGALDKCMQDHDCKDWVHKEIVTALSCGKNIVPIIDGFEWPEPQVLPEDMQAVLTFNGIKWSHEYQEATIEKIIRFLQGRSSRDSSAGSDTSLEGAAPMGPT
ASSAY_REMARKS: biochemical
MEASUREMENT_SETUP: SAM-TIR lysate 5 μg/mL, 2 h pre-incubation, 5 μM NAD+, RapidFire MS of NAD+ and ADPR; read-out: SARM1 IC50
VALUE_TYPE: IC50

Example entries and their recorded answers appear below.
COMPOUND: N#Cc1c(O)nsc1Nc1cc(Cl)ccc1Cl
IC50: < 1 µM
--
COMPOUND: CC(C)n1sc(Nc2ccccc2C(F)(F)F)c(C#N)c1=O
IC50: < 1 µM
--
COMPOUND: C[C@@H](c1ccccc1)n1sc(Nc2c(Cl)cccc2Cl)c(C(=O)N2CCOCC2)c1=O
IC50: 1 to 5 µM
--
COMPOUND: O=C(c1c(Nc2c(F)cccc2Cl)s[nH]c1=O)N1CCOCC1
IC50: 1 to 5 µM
--
COMPOUND: N=C(c1c(Nc2cccc(Cl)c2Cl)s[nH]c1=O)N1CCOCC1
IC50: 1 to 5 µM

Query: Look at this compound and give its reported IC50. `C[C@@H](c1ccccc1)n1sc(Nc2cccc(Cl)c2Cl)c(C#N)c1=O`
Result: < 1 µM

Query: What would you report for `N#Cc1c(Nc2ccc(N3CC[C@@H](N)C3)nc2)s[nH]c1=O` ?
Result: 1 to 5 µM

Query: What would you report for `COc1cccc(Cl)c1Nc1s[nH]c(=O)c1C#N` ?
Result: < 1 µM

Query: What would you report for `Cc1ccc(Nc2snc(O)c2C#N)cc1` ?
Result: 1 to 5 µM

Query: What would you report for `C[C@@H](c1ccccc1)n1sc(Nc2ccccc2C(F)(F)F)c(C(=N)N2CCOCC2)c1=O` ?
Result: 1 to 5 µM

Query: What would you report for `N#Cc1c(Nc2c(F)cccc2Cl)s[nH]c1=O` ?
Result: < 1 µM

====

ASSAY_SYSTEM: SARM1 SAM-TIR (Homo sapiens, UniProt Q6SZW1)
Construct: a fragment of the SARM1 molecule encompassing the SAM and TIR domains; made in house; host or cells: NRK1-HEK293T cells, transiently transfected; the cleared, unpurified lysate was used as the enzyme
Sequence (Q6SZW1 409-724 limits assumed): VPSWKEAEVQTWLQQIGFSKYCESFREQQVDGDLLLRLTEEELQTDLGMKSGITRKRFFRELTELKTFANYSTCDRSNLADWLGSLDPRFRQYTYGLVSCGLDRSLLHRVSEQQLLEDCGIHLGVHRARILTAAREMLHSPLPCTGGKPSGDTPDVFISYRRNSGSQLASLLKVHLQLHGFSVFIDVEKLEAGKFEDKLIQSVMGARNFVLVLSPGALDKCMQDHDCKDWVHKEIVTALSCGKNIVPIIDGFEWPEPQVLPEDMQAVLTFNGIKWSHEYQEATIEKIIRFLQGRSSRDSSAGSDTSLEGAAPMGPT
ASSAY_REMARKS: biochemical
pIC50: −log10 of the molar value.
Each entry below carries its recorded pIC50.

STRUCTURE_NOTATION: N#Cc1c(Nc2cccc(C3=CCNCC3)c2C(F)(F)F)s[nH]c1=O
pIC50: > 6.00

Now turn to the next compound.
Query: API: value(readout=pIC50, system=SARM1 SAM-TIR (Homo sapiens, UniProt Q6SZW1)) for record `O=C(c1c(Nc2ccccc2C(F)(F)F)s[nH]c1=O)N1CCCC1`;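 also: inhibition of SARM1 SAM-TIR NADase activity, i.e. NAD+ cleavage, using lysate of NRK1-HEK293T cells overexpressing the SAM-TIR fragment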
Result: 5.30 to 6.00

Cited source: patent US12624026B2
